Test system: RIG-I deficient CT26 RIG-I−/− cells
measurementProtocol: CXCL10 secretion by RIG-I deficient CT26 RIG-I−/− cells (ELISA); also: key: −: about 0 pg/mL of CXCL10, or below the level of quantitation
Assay type: cell-based, murine
conditionParameters: compound 5 to 20 μM, 24 h
property: CXCL10 secretion, CT26 RIG-I−/−

> print(dat)
                            substancesmiles  measured
1  O=C(Nc1nc2ccc3scnc3c2s1)c1ccc(-c2ccccc2)cc1         −
2  COc1nc2c(ccc3nc(NC(=O)c4cc5ccccc5cc4OCCCN4CCOCC4)sc32)s1         −
3  CSc1nc2c(ccc3nc(NC(=O)c4cc5ccccc5cc4OCCN4CCOCC4)sc32)s1         −
4  COc1nc2c(ccc3nc(NC(=O)c4cc5ccccc5cc4OCCN4CCCCC4)sc32)s1         −

* * *

Tested on: murine CT26 colon carcinoma cells
measurementProtocol: RIG-I dependent CXCL10 secretion by CT26 cells (ELISA)
Format: cell-based
conditionParameters: 10 μM compound, supernatant 24 h after stimulation
property: CXCL10 secretion, CT26

> print(dat)
                                    compound                 measured
 1  O=C(Nc1nc2ccc3scnc3c2s1)c1cc2ccccc2s1 [Example 11]       ++ (200-399 pg/mL)
 2  O=C(Nc1nc2ccc3scnc3c2s1)c1ccc2cc(OCCCCN3CCOCC3)ccc2c1 [Example 39]       ++ (200-399 pg/mL)
 3  O=C(Nc1cc2ccc3scnc3c2s1)c1cc2c(cc1OCCN1CCOCC1)OCO2 [Example 63]  ≠ (less than 100 pg/mL)
 4  O=C(Nc1nc2ccc3scnc3c2s1)c1cc2ccccc2cc1OCCNCCO [Example 46]      +++ (400-799 pg/mL)
 5  O=C(Nc1nc2ccc3scnc3c2s1)c1cc2ccccc2cc1OCCCCN1CCOCC1 [Example 28]       ++ (200-399 pg/mL)
 6  O=C(Nc1nc2ccc3scnc3c2s1)c1cccc([N+](=O)[O-])c1 [Example 9]      +++ (400-799 pg/mL)
 7  O=C(Nc1cc2ccc3scnc3c2s1)c1cc2ccsc2cc1OCCN1CCOCC1 [Example 65]  ≠ (less than 100 pg/mL)
 8  Cn1c(C(=O)Nc2nc3ccc4scnc4c3s2)cc2ccccc21 [Example 17]       ++ (200-399 pg/mL)
 9  CSc1nc2c(ccc3nc(NC(=O)c4cc5ccccc5cc4OCCCN4CCOCC4)sc32)s1 [Example 36]      +++ (400-799 pg/mL)
10  COc1nc2c(ccc3nc(NC(=O)c4cc5ccccc5cc4OCCN4CCOCC4)sc32)s1 [Example 29]        + (100-199 pg/mL)
11  O=C(Nc1nc2ccc3scnc3c2s1)c1cc2ccccc2cc1OCCN1CCNCC1 [Example 47]        + (100-199 pg/mL)
12  O=C(Nc1nc2ccc3scnc3c2s1)c1ccc2c(c1)CCCC2 [Example 13]      +++ (400-799 pg/mL)
13  O=C(Nc1nc2ccc3ocnc3c2s1)c1cc2ccccc2cc1OCCN1CCOCC1 [Example 52]        + (100-199 pg/mL)
14  O=C(Nc1nc2ccc3scnc3c2s1)c1cc2ccsc2cc1OCCCCN1CCOCC1 [Example 43]      +++ (400-799 pg/mL)
15  O=C(Nc1nc2ccc3scnc3c2o1)c1cc2ccccc2cc1OCCN1CCOCC1 [Example 58]        + (100-199 pg/mL)
16  COc1nc2c(ccc3nc(NC(=O)c4cc5ccccc5cc4OCCCCN4CCOCC4)sc32)s1 [Example 32]       ++ (200-399 pg/mL)
17  O=C(Nc1nc2ccc3scnc3c2s1)c1cc2c(cc1OCCN1CCOCC1)OCO2 [Example 40]  ≠ (less than 100 pg/mL)

* * *

System: RIG-I deficient CT26 RIG-I−/− cells
measurementProtocol: CXCL10 secretion by RIG-I deficient CT26 RIG-I−/− cells (ELISA); also: key: −: about 0 pg/mL of CXCL10, or below the level of quantitation
Type: cell-based, murine
conditionParameters: compound 5 to 20 μM, 24 h
property: CXCL10 secretion, CT26 RIG-I−/−

> print(dat)
                            substancesmiles                         property  measured
1  O=C(Nc1cc2ccc3scnc3c2o1)c1cc2ccccc2cc1OCCCCN1CCOCC1  CXCL10 secretion, CT26 RIG-I−/−         −
2  COc1cc2ccccc2cc1C(=O)Nc1nc2ccc3scnc3c2s1  CXCL10 secretion, CT26 RIG-I−/−         −
3  O=C(Nc1nc2ccc3scnc3c2s1)c1cc2c(cc1OCCCCN1CCOCC1)OCO2  CXCL10 secretion, CT26 RIG-I−/−         −

* * *

System: murine CT26 colon carcinoma cells
measurementProtocol: RIG-I dependent CXCL10 secretion by CT26 cells (ELISA)
Assay type: cell-based
conditionParameters: 10 μM compound, supernatant 24 h after stimulation
property: CXCL10 secretion, CT26

> print(dat)
                                    compound                  measured
 1  O=C(Nc1nc2ccc3occc3c2s1)c1cc2ccccc2cc1OCCN1CCOCC1 [Example 51]       +++ (400-799 pg/mL)
 2  O=C(Nc1nc2ccc3occc3c2s1)c1cc2ccccc2cc1OCCCCN1CCOCC1 [Example 50]        ++ (200-399 pg/mL)
 3  O=C(Nc1nc2ccc3scnc3c2s1)c1cc2ccccc2cc1OCCN1CCCCC1 [Example 25]        ++ (200-399 pg/mL)
 4  O=C(Nc1cc2ccc3scnc3c2o1)c1cc2ccccc2cc1OCCCCN1CCOCC1 [Example 56]       +++ (400-799 pg/mL)
 5  CCN(CCO)CCOc1cc2ccccc2cc1C(=O)Nc1nc2ccc3scnc3c2s1 [Example 45]       +++ (400-799 pg/mL)
 6  COc1nc2c(ccc3nc(NC(=O)c4ccc5ccccc5c4)sc32)s1 [Example 22]        ++ (200-399 pg/mL)
 7  COc1cc2ccccc2cc1C(=O)Nc1nc2ccc3scnc3c2s1 [Example 16]        ++ (200-399 pg/mL)
 8  O=C(Nc1nc2ccc3scnc3c2s1)c1cc2ccccc2cc1OCCCN1CCOCC1 [Example 1]  ++++ (800 to 1599 pg/mL)
 9  Cn1ccc2ccc(C(=O)Nc3nc4ccc5scnc5c4s3)cc21 [Example 20]       +++ (400-799 pg/mL)
10  O=C(Nc1nc2ccc3sccc3c2s1)c1cc2ccccc2cc1OCCCCN1CCOCC1 [Example 49]  ++++ (800 to 1599 pg/mL)
11  O=C(Nc1nc2ccc3scnc3c2s1)c1ccc2nsnc2c1 [Example 12]  ++++ (800 to 1599 pg/mL)
12  O=C(Nc1nc2ccc3scnc3c2s1)c1ccc2occc2c1 [Example 15]        ++ (200-399 pg/mL)
13  O=C(Nc1nc2ccc3scnc3c2s1)c1cc2ccccc2cc1OCCC1CCOCC1 [Example 27]        ++ (200-399 pg/mL)
14  COc1nc2c(ccc3nc(NC(=O)c4cc5ccccc5cc4OCCCN4CCOCC4)sc32)s1 [Example 31]        ++ (200-399 pg/mL)
15  COc1nc2c(ccc3nc(NC(=O)c4cc5ccccc5cc4OCCN4CCCCC4)sc32)s1 [Example 30]       +++ (400-799 pg/mL)
16  O=C(Nc1nc2ccc3scnc3c2s1)c1ccc(-c2ccccc2)cc1OCCCCN1CCOCC1 [Example 38]       +++ (400-799 pg/mL)

* * *

Tested on: murine CT26 colon carcinoma cells
measurementProtocol: RIG-I dependent CXCL10 secretion by CT26 cells (ELISA)
Format: cell-based
conditionParameters: 10 μM compound, supernatant 24 h after stimulation
property: CXCL10 secretion, CT26

> print(dat)
                            substancesmiles                       targetentity                  measured
1  O=C(Nc1nc2ccc3[nH]cnc3c2s1)c1cc2ccccc2cc1OCCN1CCOCC1  murine CT26 colon carcinoma cells       +++ (400-799 pg/mL)
2  O=C(Nc1nc2ccc3scnc3c2s1)c1cc2c(cc1OCCCCN1CCOCC1)OCO2  murine CT26 colon carcinoma cells         + (100-199 pg/mL)
3  O=C(Nc1nc2ccc3scnc3c2s1)c1cc2ccccc2cc1OCCN1CCOCC1  murine CT26 colon carcinoma cells       +++ (400-799 pg/mL)
4  O=C(Nc1nc2ccc3scnc3c2s1)c1ccc(Cl)c(C(F)(F)F)c1  murine CT26 colon carcinoma cells  ++++ (800 to 1599 pg/mL)
5   O=C(Nc1nc2ccc3scnc3c2s1)c1ccc2c(c1)OCO2  murine CT26 colon carcinoma cells       +++ (400-799 pg/mL)
6  O=C(Nc1cc2ccc3scnc3c2s1)c1cc2ccccc2cc1OCCCCN1CCOCC1  murine CT26 colon carcinoma cells  ++++ (800 to 1599 pg/mL)
7  Cn1c(C(=O)Nc2cc3ccc4scnc4c3s2)cc2ccccc21  murine CT26 colon carcinoma cells         + (100-199 pg/mL)
8  O=C(Nc1nc2ccc3scnc3c2s1)c1ccc(-c2ccccc2)cc1  murine CT26 colon carcinoma cells         + (100-199 pg/mL)
